Target: T1R1/T1R3 receptor (Felis catus, UniProt E3UMS2)
Test: cell-based
Max resp % of IMP, +Alanine (20 mM) vs 20%: less than gives Satisfied; not less than gives Not satisfied.

Reference set (5 entries):
O=C(NCCc1c[nH]c2ccccc12)c1cccnc1 [N-(2-(1H-indol-3-yl)ethyl)nicotinamide, N-(2-(1H-Indol-3-yl)ethyl)nicotinamide]	Not satisfied
O=C(NCCc1ccccc1)c1ccc2c(c1)OCO2	Satisfied
CCOC(=O)NC(=O)C(c1ccccc1)c1ccccc1 [Ro 01-6128, reference compound]	Not satisfied
Nc1nc2c(ncn2[C@@H]2O[C@H](COP(=O)(O)OP(=O)(O)O)[C@@H](O)[C@H]2O)c(=S)[nH]1 [6-Thioguanosine-5′-O-diphosphate]	Not satisfied
CC(=O)Nc1ccc(C(=O)Nc2cc(-c3ccccc3)nn2CCO)cc1	Satisfied

[Q] Please let me know if Nc1ccccc1C(=O)NCCc1ccccc1 [2-amino-N-phenethylbenzamide] shows Max resp % of IMP, +Alanine (20 mM) below 20%.
[A] Not satisfied

[Q] # strict comparison: is reported Max resp % of IMP, +Alanine (20 mM) < 20%? input = O=C(O)C1CCCCC1C(=O)Nc1cc(Cl)cc(Cl)c1 (centres unmarked)
[A] Not satisfied

###

Target: cat T1R1/T1R3 receptor (Felis catus)
Sequence (A0ABI7Z2I4 171-420): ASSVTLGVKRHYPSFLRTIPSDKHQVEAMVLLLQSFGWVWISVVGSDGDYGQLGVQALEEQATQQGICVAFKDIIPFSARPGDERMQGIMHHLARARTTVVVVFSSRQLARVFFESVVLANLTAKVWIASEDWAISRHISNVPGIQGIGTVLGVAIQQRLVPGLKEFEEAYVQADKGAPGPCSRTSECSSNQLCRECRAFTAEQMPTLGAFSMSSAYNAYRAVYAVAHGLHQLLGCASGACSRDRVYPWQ
Sequence (Q49KI5 with tags, fused parts or gaps E206Q/N523D/F654L partner): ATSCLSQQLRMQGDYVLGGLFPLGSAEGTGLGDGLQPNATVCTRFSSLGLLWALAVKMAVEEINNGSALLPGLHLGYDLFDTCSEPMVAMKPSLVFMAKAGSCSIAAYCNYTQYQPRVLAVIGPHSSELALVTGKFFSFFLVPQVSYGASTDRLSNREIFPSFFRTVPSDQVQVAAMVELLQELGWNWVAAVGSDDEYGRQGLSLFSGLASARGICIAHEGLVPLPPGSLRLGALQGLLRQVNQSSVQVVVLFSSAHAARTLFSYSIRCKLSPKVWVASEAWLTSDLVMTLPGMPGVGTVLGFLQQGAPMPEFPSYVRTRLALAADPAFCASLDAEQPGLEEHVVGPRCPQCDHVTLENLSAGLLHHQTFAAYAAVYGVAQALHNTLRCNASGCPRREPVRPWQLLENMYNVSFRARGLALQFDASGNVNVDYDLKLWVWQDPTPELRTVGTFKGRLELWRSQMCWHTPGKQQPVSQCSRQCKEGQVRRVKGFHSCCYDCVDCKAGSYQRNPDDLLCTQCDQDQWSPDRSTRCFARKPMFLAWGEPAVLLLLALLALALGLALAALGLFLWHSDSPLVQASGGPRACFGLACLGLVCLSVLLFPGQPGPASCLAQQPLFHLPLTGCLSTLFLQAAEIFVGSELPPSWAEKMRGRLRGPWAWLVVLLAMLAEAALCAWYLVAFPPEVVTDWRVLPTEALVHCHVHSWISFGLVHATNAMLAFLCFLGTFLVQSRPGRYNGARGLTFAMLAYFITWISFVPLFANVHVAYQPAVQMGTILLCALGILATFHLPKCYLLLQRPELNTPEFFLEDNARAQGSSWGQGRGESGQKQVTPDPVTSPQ
Test: cell-based
Counter-ions that a name gives are not always drawn.
EXPERIMENTAL_READOUT: EC50 (µM)
Numbers only, in µM.

O=c1nc[nH]c2c1ncn2C1O[C@H](COP(=O)(O)OP(=O)(O)OP(=O)(O)O)[C@@H](O)[C@H]1O (stereo partly drawn) [trisodium salt]	80

Here's the next entry for you.
[Q] // map O=P(O)(O)OP(=O)(O)OP(=O)(O)OC[C@H]1O[C@@H](n2cnc3c(O)ncnc32)[C@H](O)[C@@H]1O [inosine triphosphate (ITP), inosine triphosphate] to recorded EC50 (system: cat T1R1/T1R3 receptor (Felis catus))
[A] 80

###

Target: T1R1/T1R3 receptor (Felis catus, UniProt E3UMS2)
Assay: cell-based
Assay type: cell-based
Conditions: EC50 (effect with 0.2 mM IMP), positive controls measured with 0.2 mM IMP
EXPERIMENTAL_READOUT: EC50 (mM)
Answers are plain numbers, in mM.

Consider the following illustrative entries.
N[C@@H](Cc1c[nH]cn1)C(=O)O	10.2
N[C@@H](CS)C(=O)O	39.5
N[C@@H](Cc1ccccc1)C(=O)O [L-Phenylalanine, reference compound]	1.9
Nc1nc2c(ncn2[C@@H]2O[C@H](COP(=O)(O)O)[C@@H](O)[C@H]2O)c(=O)[nH]1 [GMP, guanosine monophosphate, reference compound]	0.05
CSCC[C@H](N)C(=O)O	25.5

Now take the following compound into account.
[Q] Given the entry N[C@@H](CO)C(=O)O , what EC50 was observed with T1R1/T1R3 receptor (Felis catus, UniProt E3UMS2)?
[A] 31.5

###

Please respond with reported pEC50 for every item in the list.
Biological target: T1R1/T1R3 receptor (Felis catus)
Assay: cell-based
Format: cell-based
Settings: EC50 + IMP, + IMP (0.2 mM); Table 17
pEC50: −log10 of the molar value.

Recorded pEC50, per entry:
O=C(Nc1ccccc1Br)N[C@@H]1c2ccccc2C[C@@H]1O (stereo in doubt)	< 2.52
COC(=O)C(NC(=O)/C=C/c1cccs1)C(C)C (stereo not drawn)	< 2.00

[Q] Value lookup for pEC50; key = O=C(NCCc1ccccc1)C(=O)NCc1cccnc1
[A] < 3.52
